For each record, write down the corresponding TGI.
Test system: SR leukemia
Assay: NCI tumour cell line growth inhibition, 48 h
Where a SMILES comes first, the peptide text is derived from it. The star is where a group is joined. ONb = O=[N+]([O-])c1ccc(CO*)cc1; Boc = CC(C)(C)OC(=O)*
Just the number please, in µM, no unit attached.

Incoming: Param readout = TGI; param system = SR leukemia; param query = COc1cc2c(cc1C)NC(=O)/C2=C\c1cccc(Oc2ccccc2)c1 ; response: value
Outgoing: 31.4

Incoming: Also need Cc1cc(C)nc(SC(C)C(=O)N/N=C/c2ccc(OCc3ccccc3)cc2)n1 (stereo not drawn) , thanks.
Outgoing: 38.1

Incoming: Also need Clc1ccc(C2SCc3nc4ccccc4n32)cc1Cl (stereo not drawn) , thanks.
Outgoing: 55.1

Incoming: Also need CCN1CCN(c2nc3ccc([N+](=O)[O-])cc3nc2C(=O)c2ccccc2)CC1 , thanks.
Outgoing: 31.8

Incoming: Also need CCOC(=O)C(=Cc1ccc(Oc2ccccc2)cc1)C(=O)OCC , thanks.
Outgoing: 6.07

Incoming: Also need Cc1cc(C)c2c(n1)S(=O)(=O)N(CCCN1CCN(c3cccc(C(F)(F)F)c3)CC1)c1c-2nn(C)c1C , thanks.
Outgoing: 62

Incoming: Also need CCOC(=O)C1OC(C2(C)OC3(OC4(C=CC3O)OC(C(C)C(=O)C(C)C(O)C(C)CC(C)c3c(Cl)cc(C)c(O)c3C(=O)O)C(C)CC4C)C(C)C2OC)CC1O (stereo not drawn) , thanks.
Outgoing: 4.53

Incoming: Also need COc1ccc(Nc2c3ccccc3nc3ccccc23)cc1 , thanks.
Outgoing: 4.01

Incoming: Also need Cc1cc(C)nc(NS(=O)(=O)c2ccc(Nc3c4ccc(Cl)cc4nc4c(C(=O)Nc5ccc(S(N)(=O)=O)cc5)cccc34)cc2)n1 , thanks.
Outgoing: 51.5

Incoming: Also need CCCCNC(=S)Nc1nc(C(=O)NNC(=S)NC2CCCCC2)cs1 , thanks.
Outgoing: 35.4

Incoming: Also need CC(C)CC(NC(=O)OC(C)(C)C)C(=O)NC(CCC(=O)OCc1ccc([N+](=O)[O-])cc1)C(=O)OCc1ccc([N+](=O)[O-])cc1 (stereo not drawn) (Boc-Leu-Glu(ONb)-ONb; configuration not given here) , thanks.
Outgoing: 37.1

Incoming: Also need Cc1ccc(O)c(-c2cc(-c3cccc(Cl)c3)c(C#N)c(N)n2)c1 , thanks.
Outgoing: 30.3

Incoming: Also need CC1(C)[C@@H](O[C@@H]2OC[C@@H](O[C@@H]3O[C@H](CO)[C@@H](O)[C@H](O)[C@H]3O[C@@H]3OC[C@@H](O)[C@H](O)[C@H]3O)[C@H](O)[C@H]2O[C@@H]2O[C@H](CO)[C@@H](O)[C@H](O)[C@H]2O)CC[C@]2(C)[C@H]3CC[C@]45OC[C@@]6(CC[C@](C)(C=O)C[C@H]64)[C@H](O)C[C@@]5(C)[C@]3(C)CC[C@@H]12 , thanks.
Outgoing: 1.92

Incoming: Also need CC(=C(C(N)=O)C(N)=O)C1C=C(c2cccs2)CC(c2ccc(Cl)cc2)=C1O (stereo not drawn) , thanks.
Outgoing: 81.6

Incoming: Also need COc1ccc2c(c1)C(=O)c1c-2c(Nc2ccc(Cl)cc2)nc2ccccc12 , thanks.
Outgoing: 58.2

src = PubChem BioAssay (NCI)
